Sourced from PubChem BioAssay AID1159580

Items are presented alongside their recorded normalized growth.
- methodSummary: chemical genetic growth profiling, strain panel (AID 1159580);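 note: tested at 20 µM; growth read once vehicle control cultures reached saturation at 30 °C; 1 = growth at the plate median or of vehicle wells; lower values mean less growth of the strain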
- conditionsUsed: S. cerevisiae deletion strains, growth OD, locus YMR205C, strain PFK2, hits give low values
The whole screen tested about 5,500 compounds, of which about 2,000 (36%) were called active. Not shown: some 18% with an inconclusive outcome. Some of the results follow.

{"compound": "Cc1cc(O)c(C=O)c2c1C(=O)Oc1c(COC(=O)/C=C/C(=O)O)c(O)c(C(=O)O)c(C)c1O2", "normalized growth": "0.998 (inactive)"}
{"compound": "CC(CN(C)C)CN1c2ccccc2CCc2ccccc21 (stereo not drawn)", "normalized growth": "0.97 (inactive)"}
{"compound": "O=c1[nH]cnc2[nH]ncc12", "normalized growth": "0.998 (inactive)"}
{"compound": "C[C@@H]1CC2C3CCC4=CC(=O)C=C[C@]4(C)[C@@]3(F)[C@@H](O)C[C@]2(C)[C@H]1C(=O)CO (stereo partly drawn)", "normalized growth": "0.973 (inactive)"}
{"compound": "C[C@H](CCC(=O)O)[C@H]1CCC2C3C(CC[C@@]21C)[C@@]1(C)CC[C@@H](O)C[C@H]1C[C@H]3O (stereo partly drawn)", "normalized growth": "0.989 (inactive)"}
{"compound": "C[C@@H]1CC2C3C[C@H](F)C4=CC(=O)C=C[C@]4(C)[C@@]3(F)[C@@H](O)C[C@]2(C)[C@@]1(O)C(=O)COC(=O)C(C)(C)C (stereo partly drawn)", "normalized growth": "0.977 (inactive)"}
{"compound": "COc1ccc(C(=O)CC(=O)c2ccc(C(C)(C)C)cc2)cc1", "normalized growth": "0.97 (inactive)"}
{"compound": "CN[C@@H]1[C@H](OC2[C@H](O[C@H]3[C@H](O)[C@@H](O)[C@H](N=C(N)N)[C@@H](O)[C@@H]3N=C(N)N)O[C@@H](C)[C@]2(O)C=O)O[C@@H](CO)[C@H](O)[C@H]1O (stereo partly drawn)", "normalized growth": "1.02 (inactive)"}
